# procedure.summary: Transport (permeability, Papp) across Caco-2 cell monolayers
# Assay type: in vitro ADME, human
# measurement.conditions: human, Caco-2, apical to basolateral, mean ± SD, n = 6, read-out: Papp AP to BL
reported.endpoint: Papp A→B at 50 µM (×10⁻⁶ cm/s)

INSERT INTO assay_data (compound, quantity_unit, obs_value) VALUES
  ('O=c1cc(-c2ccc(O)cc2)oc2cc(O)cc(O)c12 [Apigenin]', '×10⁻⁶ cm/s', 13.8),
  ('Cc1cc(O)c2c(c1)C(=O)c1cccc(O)c1C2=O [Chrysophanol]', '×10⁻⁶ cm/s', 10.8),
  ('Cc1cc(O)c2c(c1)C(=O)c1cc(O)cc(O)c1C2=O [Emodin]', '×10⁻⁶ cm/s', 9.52),
  ('Oc1ccc(/C=C/c2cc(O)cc(O)c2)cc1 [Resveratrol]', '×10⁻⁶ cm/s', 11.3);
